Molecular target: TR-α (Homo sapiens, UniProt P10827)
Sequence (P10827 1-410 isoform P10827-2): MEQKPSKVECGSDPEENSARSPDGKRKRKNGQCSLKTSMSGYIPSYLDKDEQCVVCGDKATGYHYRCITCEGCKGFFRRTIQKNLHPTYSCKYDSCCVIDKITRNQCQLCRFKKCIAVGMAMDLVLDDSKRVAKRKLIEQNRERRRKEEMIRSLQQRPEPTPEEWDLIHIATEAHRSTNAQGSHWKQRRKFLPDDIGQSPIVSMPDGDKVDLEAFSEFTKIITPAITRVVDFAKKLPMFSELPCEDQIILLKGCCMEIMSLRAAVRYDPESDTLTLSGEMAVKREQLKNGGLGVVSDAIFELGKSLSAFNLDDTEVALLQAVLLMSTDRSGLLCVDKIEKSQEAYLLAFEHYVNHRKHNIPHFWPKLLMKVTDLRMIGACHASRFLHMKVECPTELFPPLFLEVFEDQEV
Test: In vitro TR-α activity (in-house protocol)
Type: cell-based
Settings: Conc. 10 nM; read-out: TR-α Fold Induction w.r.t T3(100 nm)
# strict inequality: fold induction at 0.01 µM < 20 yields yes (1), everything else yields no (0)

In [3]: df
Out[3]:
                                   molecule                target_or_test_system  category
0  CCC(ON=Cc1cc(Br)c(Oc2ccc(O)c(C(C)CC)c2)c(Br)c1)C(=O)O (centres unmarked)  TR-α (Homo sapiens, UniProt P10827)    no (0)
1  CCC(C)c1cc(Oc2c(Br)cc(C=NOC(C)(C)C(=O)O)cc2Br)ccc1O (centres unmarked)  TR-α (Homo sapiens, UniProt P10827)    no (0)
2  O=C(O)CON=Cc1cc(Br)c(Oc2ccc(O)c(C(=O)c3cccc(Cl)c3)c2)c(Br)c1  TR-α (Homo sapiens, UniProt P10827)    no (0)
3  O=C(O)CON=Cc1cc(Br)c(Oc2ccc(O)c(C(=O)c3ccc(Br)cc3)c2)c(Br)c1  TR-α (Homo sapiens, UniProt P10827)   yes (1)
4  O=C(O)CON=Cc1cc(Br)c(Oc2ccc(O)c(C(O)c3ccc(Br)cc3)c2)c(Br)c1 (centres unmarked)  TR-α (Homo sapiens, UniProt P10827)   yes (1)
5  CC(ON=Cc1cc(Br)c(Oc2ccc(O)c(S(=O)(=O)N[C@@H]3C[C@H]4CC[C@@H]3C4)c2)c(Br)c1)C(=O)O (some centres unmarked)  TR-α (Homo sapiens, UniProt P10827)   yes (1)
6  CC(ON=Cc1cc(Br)c(Oc2ccc(O)c(C(C)(C)C)c2)c(Br)c1)C(=O)O (centres unmarked)  TR-α (Homo sapiens, UniProt P10827)    no (0)
7  O=C(O)CON=Cc1cc(Cl)c(Oc2ccc(O)c(Cc3ccccc3)c2)c(Cl)c1  TR-α (Homo sapiens, UniProt P10827)   yes (1)

* * *

Molecular target: TR-β (Homo sapiens, UniProt P10828)
Sequence (P10828 whole entry): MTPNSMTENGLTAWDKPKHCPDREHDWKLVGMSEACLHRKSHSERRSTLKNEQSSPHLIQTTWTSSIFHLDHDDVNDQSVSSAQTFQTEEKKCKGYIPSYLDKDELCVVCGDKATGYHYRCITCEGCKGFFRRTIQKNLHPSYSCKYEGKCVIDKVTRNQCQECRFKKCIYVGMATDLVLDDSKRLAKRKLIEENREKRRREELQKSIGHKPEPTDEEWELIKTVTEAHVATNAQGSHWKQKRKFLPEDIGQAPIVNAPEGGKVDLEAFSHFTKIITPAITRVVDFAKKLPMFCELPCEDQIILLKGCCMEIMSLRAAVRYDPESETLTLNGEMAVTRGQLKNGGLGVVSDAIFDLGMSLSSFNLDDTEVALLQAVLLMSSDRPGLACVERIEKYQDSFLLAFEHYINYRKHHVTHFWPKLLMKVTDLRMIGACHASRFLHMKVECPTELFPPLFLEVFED
Assay: In vitro TR-β activity (in-house protocol)
Format: cell-based
Conditions: Conc. 1 nM; read-out: TR-β Fold Induction w.r.t T3(100 nm)
Collected fold induction at 0.001 µM values appear next to each entry.
observed_property: fold induction at 0.001 µM

                                    compound  measured_result
 0  CCN(CC)S(=O)(=O)c1cc(Oc2c(Br)cc(C=NOC(C)C(=O)O)cc2Br)ccc1O (stereo not shown) [Example 38]             11.8
 1  CCc1cc(Oc2c(Br)cc(C=NOC(C)C(=O)O)cc2Br)ccc1O (stereo not shown) [Example 25]             11.5
 2  CC(ON=Cc1cc(Br)c(Oc2ccc(O)c(S(=O)(=O)N[C@@H]3C[C@H]4CC[C@@H]3C4)c2)c(Br)c1)C(=O)O (stereo partly shown) [Example 40]             10.1
 3  CC(ON=Cc1cc(Cl)c(Oc2ccc(O)c(C(C)C)c2)c(Cl)c1)C(=O)O (stereo not shown) [Example 8]             16.3
 4  CCC(ON=Cc1cc(Br)c(Oc2ccc(O)c(-c3ccccc3)c2)c(Br)c1)C(=O)O (stereo not shown) [Example 21]             12.9
 5  O=C(O)CON=Cc1cc(Br)c(Oc2ccc(O)c(C(=O)c3ccc(Br)cc3)c2)c(Br)c1 [Example 31]             11.8
 6  CC(ON=Cc1cc(Br)c(Oc2ccc(O)c(C(O)c3ccc(Cl)cc3)c2)c(Br)c1)C(=O)O (stereo not shown) [Example 27]             10.1
 7  CC(C)c1cc(Oc2c(Br)cc(C=NOCC(=O)O)cc2Br)ccc1O [Example 3]             17.7
 8  CC(ON=Cc1cc(Br)c(Oc2ccc(O)c(C(=O)c3ccc(Cl)cc3)c2)c(Br)c1)C(=O)O (stereo not shown) [Example 26]             9.62
 9  CCC(C)c1cc(Oc2c(Cl)cc(C=NOCC(=O)O)cc2Cl)ccc1O (stereo not shown) [Example 2]               14
10  CCC(ON=Cc1cc(Br)c(Oc2ccc(O)c(Cc3ccccc3)c2)c(Br)c1)C(=O)O (stereo not shown) [Example 17]             21.2
11  O=C(O)CON=Cc1cc(Br)c(Oc2ccc(O)c(C(O)c3ccc(Cl)cc3)c2)c(Br)c1 (stereo not shown) [Example 29]             10.6
12  CCC(C)c1cc(Oc2c(Br)cc(C=NOCC(=O)O)cc2Br)ccc1O (stereo not shown) [Example 6]             15.9

* * *

The entries below come with measured fold induction at 0.001 µM values attached.
Biological target: TR-β (Homo sapiens)
Experiment: In vitro TR-β activity (in-house protocol)
Assay type: cell-based
Conditions: Conc. 1 nM; read-out: TR-β Fold Induction w.r.t T3(100 nm)
observed_property: fold induction at 0.001 µM

In [3]: df
Out[3]:
                                   compound  measured_result
0  CC(ON=Cc1cc(Br)c(Oc2ccc(O)c(S(=O)(=O)N3CCCCC3)c2)c(Br)c1)C(=O)O (centres unmarked)               11
1  CC(ON=Cc1cc(Br)c(Oc2ccc(O)c(Cc3ccccc3)c2)c(Br)c1)C(=O)O (centres unmarked)               12
2  O=C(O)CON=Cc1cc(Br)c(Oc2ccc(O)c(S(=O)(=O)N3CCCC3)c2)c(Br)c1             6.51
3  O=C(O)CON=Cc1cc(Br)c(Oc2ccc(O)c(Cc3ccccc3)c2)c(Br)c1             11.5
4  CC(C)(ON=Cc1cc(Br)c(Oc2ccc(O)c(Cc3ccccc3)c2)c(Br)c1)C(=O)O             9.09
5  CCC(ON=Cc1cc(Br)c(Oc2ccc(O)c(C(C)C)c2)c(Br)c1)C(=O)O (centres unmarked)             23.1
6  CC(C)NS(=O)(=O)c1cc(Oc2c(Br)cc(C=NOC(C)C(=O)O)cc2Br)ccc1O (centres unmarked)             8.41
7  CCC(C)c1cc(Oc2c(Cl)cc(C=NOC(C)C(=O)O)cc2Cl)ccc1O (centres unmarked)             19.2

* * *

Biological target: TR-α (Homo sapiens, UniProt P10827)
Sequence (P10827 1-410 isoform P10827-2): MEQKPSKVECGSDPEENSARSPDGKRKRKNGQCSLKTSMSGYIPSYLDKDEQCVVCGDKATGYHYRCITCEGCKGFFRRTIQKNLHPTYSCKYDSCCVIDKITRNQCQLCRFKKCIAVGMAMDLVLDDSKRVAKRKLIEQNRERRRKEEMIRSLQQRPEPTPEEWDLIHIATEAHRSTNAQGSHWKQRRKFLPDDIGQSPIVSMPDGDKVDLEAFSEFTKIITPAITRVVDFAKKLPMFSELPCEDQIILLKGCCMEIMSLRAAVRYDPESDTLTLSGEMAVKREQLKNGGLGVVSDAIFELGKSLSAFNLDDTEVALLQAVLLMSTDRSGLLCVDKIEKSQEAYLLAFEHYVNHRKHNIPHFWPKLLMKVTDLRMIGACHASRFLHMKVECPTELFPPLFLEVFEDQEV
Assay: In vitro TR-α activity (in-house protocol)
Assay type: cell-based
Details: Conc. 1 nM; read-out: TR-α Fold Induction w.r.t T3(100 nm)
Experimental: In vitro TR-α & TR-β activities were determined as per in-house protocols and the results of representative compounds are provided in tables 1 & 2 below as a proof of the efficacies of the novel class of compounds disclosed above.
observed_property: fold induction at 0.001 µM

>>> print(df.to_string())
                                   molecule           observed_property  measured_result
0  CC(ON=Cc1cc(Br)c(Oc2ccc(O)c(C(O)c3cccc(Cl)c3)c2)c(Br)c1)C(=O)O (centres unmarked)  fold induction at 0.001 µM             14.1
1  CCC(C)c1cc(Oc2c(Cl)cc(C=NOC(C)C(=O)O)cc2Cl)ccc1O (centres unmarked)  fold induction at 0.001 µM             22.6
2  CC(ON=Cc1cc(Br)c(Oc2ccc(O)c(S(=O)(=O)N3CCCCC3)c2)c(Br)c1)C(=O)O (centres unmarked)  fold induction at 0.001 µM             14.1
3  CCC(ON=Cc1cc(Br)c(Oc2ccc(O)c(C(C)C)c2)c(Br)c1)C(=O)O (centres unmarked)  fold induction at 0.001 µM             29.6
4  O=C(O)CON=Cc1cc(Br)c(Oc2ccc(O)c(C(=O)c3cccc(Cl)c3)c2)c(Br)c1  fold induction at 0.001 µM             18.7
5  O=C(O)CON=Cc1cc(Br)c(Oc2ccc(O)c(Cc3ccccc3)c2)c(Br)c1  fold induction at 0.001 µM             10.7
6  CC(ON=Cc1cc(Br)c(Oc2ccc(O)c(C(O)c3ccc(Cl)cc3)c2)c(Br)c1)C(=O)O (centres unmarked)  fold induction at 0.001 µM             13.2
7  CC(ON=Cc1cc(Br)c(Oc2ccc(O)c(C(C)(C)C)c2)c(Br)c1)C(=O)O (centres unmarked)  fold induction at 0.001 µM             18.5
